Assay: gradient 5% acetonitrile 3 min, to 50% in 2 min, to 85% in 15 min, held 3 min, 100 µL/min
Conditions: column: Zorbax Extend-C18 2.1 x 50 mm; eluents: water / acetonitrile, 0.1% formic acid
VALUE_KIND: RP-LC retention time (s)

> print(dat)
                                   molecule  reading.unit  assay.result
1        O=S(=O)(Nc1cccc(F)c1)c1ccc2nncn2c1             s           657
2  Cc1c(C(=O)N2CCCC2)cnn1-c1ccc(-c2nc(C3CC3)no2)cn1             s           877
3  Cc1ccc(CN2C(=O)NC3(CCN(C(=O)c4sccc4C)CC3)C2=O)cc1             s           825
4        Cc1ccc(-c2nnc(CC(=O)NCC(C)C)o2)cc1             s           775
5  CCOC(=O)c1c(C)c(C(=O)NCc2ccccc2Cl)c(C)n1CC             s           929

P = CN(C)c1cccc(C(=O)Nc2ccc(CC(=O)NC(C)(C)CO)cc2)c1
Q = Cc1ccnn1-c1ccc(SCC(=O)Nc2cc(F)ccc2F)nn1
Ask: Endpoint returns the identifier whose RP-LC retention time is numerically larger, either P or Q . Mark your selection by writing its label.
Reply: Q

1 = COc1ccc2[nH]c3c(c2c1)CCNC31CCN(S(=O)(=O)c2cccnc2)CC1
2 = COc1ccc(-c2ncc3c(n2)CCN(C(=O)Nc2ccccc2Br)C3)cc1
Ask: Looking at 1 and 2 , which one comes out lower in RP-LC retention time terms? Mark your selection by writing its label.
Reply: 1

// data source = the METLIN SMRT retention time set (Domingo-Almenara et al. 2019)
